molecular target: PKR K410E (Homo sapiens, UniProt P30613, K410E); test: PKR mutant assay (AC50), PKR K410E; type: biochemical; settings: PKR K410E mutant enzyme
Sequence (P30613 whole entry K410E): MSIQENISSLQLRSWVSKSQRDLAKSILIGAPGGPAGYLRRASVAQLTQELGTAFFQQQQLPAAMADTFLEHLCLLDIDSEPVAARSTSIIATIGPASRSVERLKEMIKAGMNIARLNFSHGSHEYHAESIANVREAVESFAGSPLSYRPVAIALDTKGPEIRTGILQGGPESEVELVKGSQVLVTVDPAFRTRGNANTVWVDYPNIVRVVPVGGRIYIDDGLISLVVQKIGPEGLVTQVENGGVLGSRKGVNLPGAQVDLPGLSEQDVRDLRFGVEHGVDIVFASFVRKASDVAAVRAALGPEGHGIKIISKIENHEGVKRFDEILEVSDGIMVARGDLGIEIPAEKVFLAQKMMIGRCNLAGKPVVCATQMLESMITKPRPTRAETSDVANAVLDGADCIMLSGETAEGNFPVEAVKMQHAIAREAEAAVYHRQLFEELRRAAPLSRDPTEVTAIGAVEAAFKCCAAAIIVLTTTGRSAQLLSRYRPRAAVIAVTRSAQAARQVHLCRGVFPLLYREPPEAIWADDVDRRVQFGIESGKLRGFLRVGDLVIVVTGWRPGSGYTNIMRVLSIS
MEASURE: AC50

* Cn1c2nc(Cc3cc[nH]n3)sc2c2cnn(Cc3ncsc3C#N)c(=O)c21 | < 300 nM
* Cn1c2nc(Cc3cc[nH]n3)sc2c2cnn(Cc3c[nH]c(C(N)=O)n3)c(=O)c21 | < 300 nM
* Cn1c2nc(Cc3cc[nH]n3)sc2c2cnn(Cc3cc(C(N)=O)[nH]n3)c(=O)c21 | 301 to 800 nM
* Cn1cc(OC(F)(F)F)c(Cn2ncc3c4sc(Cc5cc[nH]n5)nc4n(C)c3c2=O)n1 | < 300 nM
* Cn1c2nc(Cc3ccccn3)sc2c2cnn(Cc3cccnc3)c(=O)c21 | 301 to 800 nM
* Cn1cc(N)c(Cn2ncc3c4sc(Cc5cc[nH]n5)nc4n(C)c3c2=O)n1 | < 300 nM
* Cn1c2nc(Cc3cc[nH]n3)sc2c2cnn(Cc3ncc[nH]3)c(=O)c21 | < 300 nM
* Cn1c2nc(Cc3ccccn3)sc2c2cnn(Cc3n[nH]cc3Cl)c(=O)c21 | < 300 nM
* Cn1c2nc(Cc3csc(CO)n3)sc2c2cnn(Cc3cn[nH]n3)c(=O)c21 | < 300 nM
* Cn1c2nc(Cc3n[nH]cc3F)sc2c2cnn(Cc3n[nH]cc3Cl)c(=O)c21 | < 300 nM
* Cn1c2nc(C(=O)c3cc[nH]n3)sc2c2cnn(Cc3cc[nH]n3)c(=O)c21 | > 800 nM
* COc1cn(C)nc1Cn1ncc2c3sc(Cc4cc[nH]n4)nc3n(C)c2c1=O | < 300 nM
* COc1c[nH]nc1Cn1ncc2c3sc(Cc4n[nH]cc4F)nc3n(C)c2c1=O | < 300 nM
* Cn1c2nc(Cc3c[nH]nn3)sc2c2cnn(Cc3cscn3)c(=O)c21 | < 300 nM
